- ASSAY_SYSTEM: CD64 (FcgRI) (Homo sapiens, UniProt P12314)
- Sequence (P12314 16-374): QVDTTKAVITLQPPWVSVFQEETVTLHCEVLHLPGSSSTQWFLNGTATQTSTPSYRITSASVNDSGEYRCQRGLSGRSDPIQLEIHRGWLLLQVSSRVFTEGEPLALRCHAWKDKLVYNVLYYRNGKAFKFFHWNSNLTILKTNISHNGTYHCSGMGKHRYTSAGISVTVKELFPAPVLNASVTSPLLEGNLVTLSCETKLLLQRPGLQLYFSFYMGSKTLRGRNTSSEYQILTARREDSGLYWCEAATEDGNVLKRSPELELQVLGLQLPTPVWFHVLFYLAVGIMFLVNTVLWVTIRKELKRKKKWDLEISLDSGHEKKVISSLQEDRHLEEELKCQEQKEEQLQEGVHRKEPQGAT
- ASSAY: SPR, antibody binding to anti-his Fab captured FcgR-his (% Rmax)
- ASSAY_CONTEXT: 1 μM antibody

MOLECULE	% Rmax hCD64 (%)
mAb13-IgG2.5 (protein, left off: another chain or arm of the molecule) constant: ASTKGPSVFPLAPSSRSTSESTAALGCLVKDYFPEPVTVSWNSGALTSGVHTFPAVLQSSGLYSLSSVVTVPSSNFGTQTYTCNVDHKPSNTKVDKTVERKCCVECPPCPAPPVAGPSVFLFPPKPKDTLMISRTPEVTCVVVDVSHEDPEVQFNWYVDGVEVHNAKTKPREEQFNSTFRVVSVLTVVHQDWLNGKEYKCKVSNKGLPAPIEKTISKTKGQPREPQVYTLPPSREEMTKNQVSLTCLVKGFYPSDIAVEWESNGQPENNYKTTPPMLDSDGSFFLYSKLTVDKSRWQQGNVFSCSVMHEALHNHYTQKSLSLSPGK	−2
mAb6-IgG2.3 (protein, left off: another chain or arm of the molecule) constant: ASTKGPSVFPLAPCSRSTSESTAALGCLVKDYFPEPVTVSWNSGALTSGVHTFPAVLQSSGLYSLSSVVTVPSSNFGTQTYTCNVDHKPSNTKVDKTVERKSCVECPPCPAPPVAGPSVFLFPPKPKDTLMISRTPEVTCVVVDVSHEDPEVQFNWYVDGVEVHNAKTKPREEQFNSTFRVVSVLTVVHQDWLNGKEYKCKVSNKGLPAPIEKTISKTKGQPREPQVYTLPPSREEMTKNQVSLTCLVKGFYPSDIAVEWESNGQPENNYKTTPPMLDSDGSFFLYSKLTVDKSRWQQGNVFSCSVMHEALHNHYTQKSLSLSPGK	3

Recorded values, source patent US20190284293A1.
